src = patent US9034850B2

Tested on: GnRH receptor (Homo sapiens, UniProt P30968)
Sequence (P30968 1-328): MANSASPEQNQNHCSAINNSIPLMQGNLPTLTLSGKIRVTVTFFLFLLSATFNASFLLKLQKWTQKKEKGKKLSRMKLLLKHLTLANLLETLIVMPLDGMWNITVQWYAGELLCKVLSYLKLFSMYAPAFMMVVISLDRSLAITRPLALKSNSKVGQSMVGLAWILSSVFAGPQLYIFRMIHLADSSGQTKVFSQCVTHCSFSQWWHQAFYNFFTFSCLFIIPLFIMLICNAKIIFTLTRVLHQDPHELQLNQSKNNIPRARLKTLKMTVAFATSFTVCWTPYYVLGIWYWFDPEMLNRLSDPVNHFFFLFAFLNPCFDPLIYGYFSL
Assay info: GnRH receptor membrane binding assay ([125I]-D-Trp6-LHRH competition)
Parameters: purchased Perkin Elmer; host or cells: CHO-K1 (stably transfected), membrane preparation
Measurement setup: membrane from CHO-K1 cells stably transfected with GnRH receptor; 0.2 nM [125I]-D-Trp6-LHRH; Table 26 lists compounds with IC50 of less than 100 nM; read-out: IC50 as measured by the GnRH receptor membrane binding assay
pIC50: −log10 of the molar value.
Measurement label: pIC50

As a guide, the following entries are already answered.
Compound	pIC50
Cc1c(N2CCN(Cc3ccc(C(F)(F)F)o3)CC2)c(=O)n(C[C@H](O)c2ccccc2)c(=O)n1Cc1c(F)cccc1C(F)(F)F	> 7.00
Cc1c(N2CCN(Cc3ccc(C(F)(F)F)o3)CC2)c(=O)n(C[C@H](NCCC(O)C(=O)O)c2ccccc2)c(=O)n1Cc1c(F)cccc1C(F)(F)F (stereo partly drawn)	> 7.00

// returns pIC50 for Cc1c(N2CCN(Cc3ccc(C(F)(F)F)o3)C(CO)C2)c(=O)n(C[C@H](N)c2ccccc2)c(=O)n1Cc1c(F)cccc1C(F)(F)F (stereo partly drawn) with GnRH receptor (Homo sapiens, UniProt P30968); value = > 7.00

----------
Assay info: Assay for oral absorptivity (plasma drug level after oral administration)
Format: in vivo
Measurement setup: male, rat, 40 umol/kg; SD rats, oral, plasma
Measurement label: Cmax (ng/mL)

Given smiles	Unit tag	Cmax
Cc1c(N2CCN(Cc3cccc(C(F)(F)F)c3)CC2)c(=O)n(C[C@H](NCCCC(=O)O)c2ccccc2)c(=O)n1Cc1c(F)cccc1C(F)(F)F	ng/mL	5100
Cc1cc(F)cc([C@H](Cn2c(=O)c(N3CCN(Cc4ccc(C(F)(F)F)o4)CC3)c(C)n(Cc3c(F)cccc3C(F)(F)F)c2=O)NCCCC(=O)O)c1	ng/mL	4140

----------
Tested on: GnRH receptor (Homo sapiens)
Assay info: GnRH-R reporter assay (NFAT promoter luciferase, leuprolide acetate as ligand)
Assay type: cell-based
Measurement setup: HEK293 transformed with pcDNA3.1/GnRH receptor and pGL4/NFAT promoter; luciferase; read-out: IC50 Value
Measurement label: pIC50
The scale used: pIC50 is minus the common logarithm of the concentration in molar units.

# molecule Cc1cc(F)cc([C@H](Cn2c(=O)c(N3CCN(Cc4ccc(C(F)(F)F)o4)CC3)c(C)n(Cc3c(F)cccc3C(F)(F)F)c2=O)NCCCC(=O)O)c1 ; its pIC50 = 8.31

----------
Tested on: GnRH receptor (Homo sapiens)
Assay info: GnRH receptor membrane binding assay ([125I]-D-Trp6-LHRH competition)
Design: purchased Perkin Elmer; host or cells: CHO-K1 (stably transfected), membrane preparation
Measurement setup: membrane from CHO-K1 cells stably transfected with GnRH receptor; 0.2 nM [125I]-D-Trp6-LHRH; Table 26 lists compounds with IC50 of less than 100 nM; read-out: IC50 as measured by the GnRH receptor membrane binding assay
pIC50: −log10 of the molar value.
Measured pIC50 values are reported for all entries that follow.

Below: 2 compounds and their reported pIC50.
Compound	Tested on	pIC50
Cc1cc(C)c(CN2CCN(c3c(C)n(Cc4c(F)cccc4F)c(=O)n(C[C@H](N)c4ccccc4)c3=O)CC2)c(C)c1 [Compound 3-32]	GnRH receptor (Homo sapiens)	> 7.00
Cc1c(N2CCC(C)CC2)c(=O)n(C[C@H](N)c2ccccc2)c(=O)n1Cc1c(F)cccc1F [Compound 1-16]	GnRH receptor (Homo sapiens)	> 7.00

Now let's try a different one.
pIC50 for Cc1c(N2CCN(Cc3cccnc3)CC2)c(=O)n(C[C@H](N)c2ccccc2)c(=O)n1Cc1c(F)cccc1F [Compound 3-7] is > 7.00
